Measured melting point of individual entries
Assay Metric: melting point

* Cc1cc2c(cc1Cl)N(C(=O)CN1CCN(c3ncccn3)CC1)c1ccccc1N(C)S2(=O)=O | 180 to 182 °C
* O=C(NCCn1ccnc1)c1cc(N2CC2)c([N+](=O)[O-])cc1[N+](=O)[O-] | > 250 °C
* NC(=O)c1ncn2c1CN(C(=O)N1CCOCC1)c1ccccc1-2 | 220 to 221 °C
* Cc1ccc(F)cc1C(=O)Nc1ccc(C(=O)O)cc1 | 272 to 275 °C
* CC(=O)OC1CCC2C3CCC4=CC(=O)C(I)C(C)C4(C)C3CCC12C (centres undefined) | 102 °C
* Clc1cc(Cl)n2nc(SCc3ccccc3)nc2n1 | 97 to 100 °C
* NC(=O)Cc1cccc(C(=O)c2ccc(F)cc2)c1N | 184 to 186 °C
* CC(=O)Oc1c(C)cc(C=CC(=O)Nc2cnc3c(C)cc(C)cc3c2-c2ccccc2Cl)c(C)c1C | 233 to 234 °C
* CC(C)(C)C(=O)Nc1cc(Cl)c([N+](=O)[O-])cc1Cl | 142 to 145 °C
* CC1(CCC(O)(c2ccccc2)c2ccccc2)CCCCC12OCCO2 (centres undefined) | 115 to 117 °C
* O=C(O)c1cn(CC2CCC2)c2cc(Cl)ccc12 | 191 to 193 °C
* Cc1ccc(OCn2cc(Cl)cnc2=O)cc1 | 186 °C
* CC1(C)CCC(C)(C)c2c1ccc(CS(=O)(=O)c1ccccc1)c2N | 156 to 157 °C
* Cc1cc(O)ccc1COCCn1ccnn1 | 92 to 93 °C
* COC1CN2[C@H]3CC[C@@H]2[C@@H]1[C@@H](c1ccc(Cl)c(Cl)c1)C3 (some centres undefined) | 139 to 141 °C
* CC1=CC(COC(c2ccccc2)(c2ccccc2)c2ccccc2)O[C@H]1c1coc2c(N)ncnc12 (some centres undefined) | 128 to 132 °C
* CCCc1nc2cccc(C(=O)OC)c2n1Cc1ccc(-c2ccccc2-c2nnn[nH]2)cc1 | 195 to 196 °C
* C[C@@]1(F)[C@H](OC(=O)c2ccccc2)[C@@H](COC(=O)c2ccccc2)O[C@H]1n1cnc2c(Cl)nc(N)nc21 | 160 to 162 °C
* Cc1c(Cl)c(Oc2ncc(C(F)(F)F)cc2Cl)nn1C(=O)NC1CCCCC1 | 94 to 96 °C
* O=C(c1cc(-c2cccc(Cl)c2)c(=O)n2c1-c1c(Cl)cccc1C2)N1CCC[C@@H]1CO | 228 to 230 °C
* CC(C)CCCC(C)C1CCC2C3CC=C4CC(OCCCCCCSC5OC(CO)C(O)C(O)C5O)CCC4(C)C3CCC12C (centres undefined) | 110 °C
* CC(C)(C)OC(=O)N1CCC(c2ccc3[nH]c(-c4ccc(S(C)(=O)=O)cc4F)nc3c2)CC1 | 208 to 212 °C
* N#CN=C(Nc1ccc(C#N)c(Br)c1O)Nc1cccc2c1OCO2 | 164 to 165 °C
* C(=C\c1nc(COc2ccc(CCCn3cccc3)cc2)co1)/c1ccccc1 | 108 to 109 °C
* CCOc1c(OC)cc(C(=O)O)c(-c2c(C(=O)O)cc(OC)c3c2OCO3)c1OCC | 262 to 263 °C
* CN(C)c1ccc([N+](=O)[O-])c(CO)c1 | 138 to 139 °C
* CCOC(C)Oc1ccc2c(c1C=O)OCO2 (centres undefined) | 48 to 50 °C
* CNC(=O)c1ccc(F)c2c1CC(N(CCCc1c[nH]c3ccc(F)cc13)CC1CC1)CO2 (centres undefined) | 120 °C
* COc1ccc(C)cc1NC(=O)Nc1ccc(C2=CCN(C(=O)Nc3ncccc3CO)CC2)cc1 | 103 to 108 °C
* CCC(CC)c1nn(-c2ncc(C(F)(F)F)cn2)cc1CCCOc1c(CC(=O)O)cccc1OC | 163 to 164 °C
* CCOC(=O)c1cnc2cc(C)nn2c1N(C)S(=O)(=O)c1ccc(Oc2ccncc2)cc1 | 139 to 144 °C
* COc1ccc(Cc2ccc(NC3=NCCN3)cc2)cc1 | 114 to 116 °C
* Cc1cccc(Sc2ccc(C(=O)O)s2)c1 | 73 to 75 °C
* O=C(O)COc1cccc(COC(=O)N(c2ccccc2)c2ccccc2)c1 | 142 to 144 °C
* O=C1OC2(c3ccccc3)CCCN2c2ccccc21 (centres undefined) | 152 °C
* Cc1csc2c(=O)n(CCC(C(=O)NO)N(C)S(=O)(=O)c3ccc(Oc4ccccc4)cc3)c(=O)[nH]c12 (centres undefined) | 170 to 171 °C
* Clc1ccc([C@@H]2CNc3ccccc3S2)cc1 | 151 to 153 °C
* O=C(O)Cc1cc(F)ccc1OCCc1ccccc1 | 99 to 101 °C
* CSC1Cc2cc(Cl)ccc2C1=O (centres undefined) | 90 °C

* * *

Assay Metric: melting point

• NC(=O)COCC(Cc1ccccc1)NC(=O)[C@@H]1CCCN1C(=O)OCc1ccccc1 (some centres undefined) = 137 to 142 °C
• O=C(O)C(=O)c1ccc(OCc2ccc3ccccc3n2)cc1 = 225 to 228 °C
• O=C(Cn1c(-c2ccc3c(c2)OCO3)nc2ccccc21)c1ccccc1 = 186 to 189 °C
• O=C(Nc1nc(-c2ccccc2)nc2[nH]ccc12)[C@@H]1CCCN1 = 236 to 238 °C
• CN(CCNC(=NCCSCc1csc(NC(=N)N)n1)NC#N)CCN(Cc1ccc(F)cc1)c1ccccn1 = 109 °C
• CC(C)c1ccc(C2NCCc3c2[nH]c2ccccc32)cc1 (centres undefined) = 146 °C
• CCCC(C)(O)C(=O)Nc1ccnc(C(=O)OC)c1 (centres undefined) = 122 °C
• O=C1O[C@@H](Cn2ccnn2)CN1c1ccc(-c2ccc(C3=NOC(CS(=O)(=O)CCc4ccncc4)C3)nc2)c(F)c1 (some centres undefined) = 195 °C
• CN(C)c1ccc(S(=O)(=O)Nc2cnc3ccc(Cl)cc3n2)cc1 = 206 to 207 °C
• O=C1OCCc2ccc([N+](=O)[O-])cc21 = 124 to 125 °C
• CCOC(=O)/C=C/c1cc(F)c2ncc(C(=O)NCc3ccc(Cl)cc3)c(O)c2c1 = 278 to 280 °C
• CCOC(=O)c1c2n(c3cc(N4CCNCC4)c(F)cc3c1=O)C(C)S2 (centres undefined) = 224 °C
• Cc1cc(-c2nc3cccnn3c2-c2ccnc(NC(=O)c3ccc(C(F)(F)F)nc3)c2)ccc1F = 225 to 226 °C
• CCCCc1cc2cc(O)ccc2c(Oc2ccc(/C=C/C(=O)O)cc2)c1-c1ccccc1 = 128 to 130 °C
• CC(C)(CO)c1ccc(C(=O)Nc2cn3cc(-c4ccoc4)ccc3n2)cc1 = 246 to 248 °C
• COC(=O)c1ccc(Cl)cc1NC(=O)CSc1ccccc1Br = 99 to 101 °C
• N#Cc1ccc(-c2cc3ccccc3[nH]2)cc1 = 201 °C
• C(=Nc1c2c(nc3ccccc13)CCCC2)c1cccc2ccccc12 = 229 to 231 °C
• CCN1CC2(CCN(Cc3ccccc3)CC2)OC1=O = 105 to 106 °C
• O=C(O)c1cn(CCc2ccccc2)c2cc(C3CCCC3)nn2c1=O = 198 to 200 °C
• O=S(=O)(NCC(O)(Cn1cncn1)c1ccc(Cl)cc1Cl)c1ccc(C(F)(F)F)cc1 (centres undefined) = 165 to 166 °C
• CC(=C1SC(=O)NC1=O)c1ccc(OCCOc2c(-c3cc(F)ccc3C)n(C)c3ccccc3c2=O)cc1 = 192 to 196 °C
• C#CCCOc1cc(N2C(=O)CC(C(F)(F)F)CC2=O)c(F)cc1Cl = 89 to 91 °C
• CN(C)CCCC(C(N)=O)c1ccccc1-c1ccccc1 (centres undefined) = 108 to 110 °C
• Cc1ccc(S(=O)(=O)Nc2ccc([N+](=O)[O-])cc2C#N)cc1 = 166 to 167 °C
• COC(=O)C1N2C(=O)C(N3C(=O)c4ccccc4C3=O)C2SCC1(C)O (centres undefined) = 203 °C
• c1ccc(CN2CCC3(CC2)OCc2ccccc23)cc1 = 67 to 68.5 °C
• COc1nc(C)cnc1NS(=O)(=O)c1ccccc1I = 136 to 138 °C
• CCCCC(CC)C(=O)Nc1ccc2c(c1)c(Cc1ccc(C(=O)NS(=O)(=O)c3ccccc3)cc1OC)cn2C (centres undefined) = 169 to 171 °C
• N=c1sc2cc(OC(F)(F)F)ccc2n1CCCO = 106 °C
• CNC(=O)CC1CN=C(c2cc3cc(Oc4ccc(S(C)(=O)=O)nc4)cc(OC(COC)COC)c3[nH]2)S1 (centres undefined) = 149 to 151 °C
• O=C(O)COCCN(C1CC1)S(=O)(=O)c1ccccc1Cl = 115 °C
• CCCn1c(N)c(N=Cc2ccc(OCC(=O)O)cc2)c(=O)n(CCC)c1=O = 179 to 180 °C
• CC(C)(C)N1C(=O)c2cc([N+](=O)[O-])c(Cl)nc2C1=O = 100 to 104 °C
• Cc1c(C)c2c(c(C)c1NCc1ccc(Cl)cc1)C(c1ccc(C(C)C)cc1)C(C)(C)O2 (centres undefined) = 93 to 94 °C
• CC(C)(C)NC(=O)N1CCc2cc(S(=O)(=O)n3cc(-c4ccccc4)[nH]c3=O)ccc21 = 222 to 223 °C
• CCOC(=O)c1ccc(OCCSc2ccccc2)cc1 = 50 to 51 °C
• CCCCCCCCCCCCSc1ccc2nn(-c3cc(C(C)(C)C)cc(C(C)(C)C)c3O)nc2c1 = 62 to 64 °C
• NNC1=NC(=O)C(=Cc2cccc(-c3cc(F)c(O)c(C45CC6CC(CC(C6)C4)C5)c3)c2)S1 = 303 to 308 °C
